Species on record: Homo sapiens
run.description: Inhibition of EGFR L858R/T790M double mutant (unknown origin) measured at 0.1 uM by ELISA
readout.label: inhibition (%)
Hi! Could you send only the number? It should be in %, unit omitted.

Ask: Look up inhibition for this molecule: `COc1cc(NC(=O)CN2CCN(CCO)CC2)ccc1Nc1nccc(N2CCc3sccc3C2)n1`
Reply: 10.9

Ask: Look up inhibition for this molecule: `C=CC(=O)Nc1cc(Nc2ncc(Cl)c(N3CCc4sccc4C3)n2)c(OC)cc1N(C)CCN(C)C`
Reply: 85

Ask: Look up inhibition for this molecule: `COc1cc(NC(=O)CN2CCN(C)CC2)ccc1Nc1nccc(N2CCc3sccc3C2)n1`
Reply: 16.3

Ask: Look up inhibition for this molecule: `C=CC(=O)Nc1cc(Nc2nccc(N3CCc4sccc4C3)n2)c(OC)cc1N1CCOCC1`
Reply: 20.9

Ask: Look up inhibition for this molecule: `COc1cc(NC(=O)CN(C)C)ccc1Nc1nccc(N2CCc3sccc3C2)n1`
Reply: 5

Ask: Look up inhibition for this molecule: `C=CC(=O)Nc1cc(Nc2nccc(N3CCc4sccc4C3)n2)c(OC)cc1N(C)CCN(C)C`
Reply: 54.1

Ask: Look up inhibition for this molecule: `C=CC(=O)Nc1cc(Nc2nccc(N3CCc4sccc4C3)n2)c(OC)cc1N1CCN(C)CC1`
Reply: 33.5

Ask: Look up inhibition for this molecule: `CCC(=O)Nc1cc(Nc2ncc(Cl)c(N3CCc4sccc4C3)n2)c(OC)cc1N(C)CCN(C)C`
Reply: 97.9

Ask: Look up inhibition for this molecule: `C=CC(=O)Nc1cc(Nc2nccc(N3CCc4sccc4C3)n2)c(OC)cc1N1CCN(CC)CC1`
Reply: 5.4

Ask: Look up inhibition for this molecule: `C=CC(=O)Nc1cc(Nc2nccc(N3CCc4sccc4C3)n2)c(OC)cc1N(C)C`
Reply: 2.3

Ask: Look up inhibition for this molecule: `CCC(=O)Nc1cc(Nc2nccc(N3CCc4sccc4C3)n2)c(OC)cc1N(C)CCN(C)C`
Reply: 67.7

Ask: Look up inhibition for this molecule: `C=CC(=O)Nc1cc(Nc2nccc(N3CCc4sccc4C3)n2)c(OC)cc1N(CC)CC`
Reply: 13.5

Ask: Look up inhibition for this molecule: `COc1cc(NC(=O)CN2CCC(C)CC2)ccc1Nc1nccc(N2CCc3sccc3C2)n1`
Reply: 4.5

Ask: Look up inhibition for this molecule: `C=CC(=O)Nc1cc(Nc2nccc(N3CCc4sccc4C3)n2)c(OC)cc1N1CCCC1`
Reply: 14.9

Ask: Look up inhibition for this molecule: `CCN1CCN(CC(=O)Nc2ccc(Nc3nccc(N4CCc5sccc5C4)n3)c(OC)c2)CC1`
Reply: 9.9

Ask: Look up inhibition for this molecule: `COc1cc(NC(=O)CN(C)CCN(C)C)ccc1Nc1nccc(N2CCc3sccc3C2)n1`
Reply: 20.9

Ask: Look up inhibition for this molecule: `C=CC(=O)Nc1cc(Nc2nccc(-c3cn(C)c4ccccc34)n2)c(OC)cc1N(C)CCN(C)C`
Reply: 97.3

Ask: Look up inhibition for this molecule: `CCN(CC)C/C=C/C(=O)Nc1ccc(OC)c(Nc2nccc(N3CCc4sccc4C3)n2)c1`
Reply: 36.8

Ask: Look up inhibition for this molecule: `COc1ccc(NC(=O)/C=C/CN(C)C)cc1Nc1nccc(N2CCc3sccc3C2)n1`
Reply: 42.2

Ask: Look up inhibition for this molecule: `CCN(CC)CC(=O)Nc1ccc(Nc2nccc(N3CCc4sccc4C3)n2)c(OC)c1`
Reply: 3.6

Ask: Look up inhibition for this molecule: `COc1cc(NC(=O)CN2CCOCC2)ccc1Nc1nccc(N2CCc3sccc3C2)n1`
Reply: 3.2

---

run.description: Inhibition of EGFR L858R/T790M/C797S triple mutant (unknown origin) measured by ELISA
Design: species or system Homo sapiens
readout.label: IC50 (nM)
Hi! Could you send only the number? It should be in nM, unit omitted.

Ask: Look up IC50 for this molecule: `CCC(=O)Nc1cc(Nc2ncc(Cl)c(N3CCc4sccc4C3)n2)c(OC)cc1N(C)CCN(C)C`
Reply: 360

Ask: Look up IC50 for this molecule: `C=CC(=O)Nc1cc(Nc2ncc(Cl)c(N3CCc4sccc4C3)n2)c(OC)cc1N1CCN(C)CC1`
Reply: 659

Ask: Look up IC50 for this molecule: `C=C(Cl)C(=O)Nc1cc(Nc2ncc(Cl)c(N3CCc4sccc4C3)n2)c(OC)cc1N(C)CCN(C)C`
Reply: 466

Ask: Look up IC50 for this molecule: `C=CC(=O)Nc1cc(Nc2nccc(-c3cn(C)c4ccccc34)n2)c(OC)cc1N(C)CCN(C)C`
Reply: 129

---

test.target: Epidermal growth factor receptor (Homo sapiens, UniProt P00533)
Sequence (P00533 whole entry): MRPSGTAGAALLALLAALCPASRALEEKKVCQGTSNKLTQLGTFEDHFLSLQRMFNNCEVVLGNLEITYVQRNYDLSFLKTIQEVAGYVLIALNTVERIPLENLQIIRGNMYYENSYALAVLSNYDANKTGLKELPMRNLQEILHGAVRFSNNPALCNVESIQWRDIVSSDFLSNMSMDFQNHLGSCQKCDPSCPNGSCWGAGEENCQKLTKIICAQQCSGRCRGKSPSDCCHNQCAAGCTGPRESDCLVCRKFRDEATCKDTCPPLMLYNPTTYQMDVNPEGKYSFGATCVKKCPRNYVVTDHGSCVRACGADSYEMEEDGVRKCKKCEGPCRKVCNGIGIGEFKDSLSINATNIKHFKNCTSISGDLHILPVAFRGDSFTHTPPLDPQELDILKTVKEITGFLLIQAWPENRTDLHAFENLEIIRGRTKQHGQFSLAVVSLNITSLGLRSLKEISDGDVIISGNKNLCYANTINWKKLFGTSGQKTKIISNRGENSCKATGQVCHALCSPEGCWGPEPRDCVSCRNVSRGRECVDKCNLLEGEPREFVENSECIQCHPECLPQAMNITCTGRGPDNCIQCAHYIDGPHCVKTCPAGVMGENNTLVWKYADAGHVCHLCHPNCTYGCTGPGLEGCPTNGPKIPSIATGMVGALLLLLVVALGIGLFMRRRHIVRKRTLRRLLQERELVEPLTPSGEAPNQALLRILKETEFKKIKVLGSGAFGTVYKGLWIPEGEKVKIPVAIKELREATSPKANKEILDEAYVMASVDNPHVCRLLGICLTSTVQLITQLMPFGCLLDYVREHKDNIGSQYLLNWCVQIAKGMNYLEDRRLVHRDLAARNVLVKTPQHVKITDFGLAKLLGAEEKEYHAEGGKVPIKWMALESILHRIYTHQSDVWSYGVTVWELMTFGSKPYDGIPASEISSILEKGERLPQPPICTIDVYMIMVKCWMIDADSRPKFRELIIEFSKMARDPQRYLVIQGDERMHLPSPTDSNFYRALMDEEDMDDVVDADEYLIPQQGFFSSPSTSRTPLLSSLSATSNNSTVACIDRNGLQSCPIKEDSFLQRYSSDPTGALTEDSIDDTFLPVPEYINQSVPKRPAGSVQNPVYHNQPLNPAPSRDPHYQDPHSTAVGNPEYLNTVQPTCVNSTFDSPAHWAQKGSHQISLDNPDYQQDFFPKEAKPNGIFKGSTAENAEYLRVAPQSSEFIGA
readout.label: IC50 (nM)
Hi! Could you send only the number? It should be in nM, unit omitted.

Ask: Look up IC50 for this compound: `C/C=C/C(=O)Nc1cc(Nc2ncc(Cl)c(N3CCc4sccc4C3)n2)c(OC)cc1N(C)CCN(C)C`
Reply: 353

Ask: Look up IC50 for this compound: `CCC(=O)Nc1cc(Nc2ncc(Cl)c(N3CCc4sccc4C3)n2)c(OC)cc1N(C)CCN(C)C`
Reply: 170

Ask: Look up IC50 for this compound: `C=C(Cl)C(=O)Nc1cc(Nc2ncc(Cl)c(N3CCc4sccc4C3)n2)c(OC)cc1N(C)CCN(C)C`
Reply: 96.3

Ask: Look up IC50 for this compound: `C=CC(=O)Nc1cc(Nc2ncc(Cl)c(N3CCc4sccc4C3)n2)c(OC)cc1N(C)CCN(C)C`
Reply: 6.4

---

run.description: Inhibition of EGFR L858R/T790M double mutant (unknown origin) measured by ELISA
Design: species or system Homo sapiens
readout.label: IC50 (nM)
Hi! Could you send only the number? It should be in nM, unit omitted.

Ask: Look up IC50 for this compound: `C=C(Cl)C(=O)Nc1cc(Nc2ncc(Cl)c(N3CCc4sccc4C3)n2)c(OC)cc1N(C)CCN(C)C`
Reply: 3.6

Ask: Look up IC50 for this compound: `C/C=C/C(=O)Nc1cc(Nc2ncc(Cl)c(N3CCc4sccc4C3)n2)c(OC)cc1N(C)CCN(C)C`
Reply: 12.1

Ask: Look up IC50 for this compound: `C=CC(=O)Nc1cc(Nc2ncc(Cl)c(N3CCc4sccc4C3)n2)c(OC)cc1N(C)CCN(C)C`
Reply: 3.9

Ask: Look up IC50 for this compound: `CCC(=O)Nc1cc(Nc2ncc(Cl)c(N3CCc4sccc4C3)n2)c(OC)cc1N(C)CCN(C)C`
Reply: 4

Ask: Look up IC50 for this compound: `C=CC(=O)Nc1cc(Nc2ncc(Cl)c(N3CCc4sccc4C3)n2)c(OC)cc1N1CCN(C)CC1`
Reply: 294

Ask: Look up IC50 for this compound: `COc1cc(N(C)CCN(C)C)c(NC(=O)C=C(C)C)cc1Nc1ncc(Cl)c(N2CCc3sccc3C2)n1`
Reply: 16.3

Ask: Look up IC50 for this compound: C=CC(=O)Nc1cc(Nc2nccc(-c3cn(C)c4ccccc34)n2)c(OC)cc1N(C)CCN(C)C [OSIMERTINIB]
Reply: 3.4

---

Organism: Homo sapiens
run.description: Selectivity ratio of IC50 for EGFR L858R/T790M double mutant (unknown origin) to IC50 for wildtype EGFR (unknown origin) measured by ELISA
readout.label: Ratio IC50
Note: the reply should be a number with no unit written.

Ask: Look up Ratio IC50 for this compound: `C=CC(=O)Nc1cc(Nc2ncc(Cl)c(N3CCc4sccc4C3)n2)c(OC)cc1N(C)CCN(C)C`
Reply: 7

Ask: Look up Ratio IC50 for this compound: `C/C=C/C(=O)Nc1cc(Nc2ncc(Cl)c(N3CCc4sccc4C3)n2)c(OC)cc1N(C)CCN(C)C`
Reply: 2.9

Ask: Look up Ratio IC50 for this compound: `C=C(Cl)C(=O)Nc1cc(Nc2ncc(Cl)c(N3CCc4sccc4C3)n2)c(OC)cc1N(C)CCN(C)C`
Reply: 26.7

Ask: Look up Ratio IC50 for this compound: `CCC(=O)Nc1cc(Nc2ncc(Cl)c(N3CCc4sccc4C3)n2)c(OC)cc1N(C)CCN(C)C`
Reply: 42.5
